For each entry below, report its mass density value.
- measurementConditions: 303.15 K; 101 kPa; Liquid; Pycnometric method
Quick note: give the figure in kg/m3, leave out the unit.

In: Tell me its mass density given CCCCO as the entry.
Out: 801.9

In: Give the reported mass density for this molecule. CCC(C)O (centres undefined)
Out: 798.3

In: Dear colleague, please send me the reported mass density for OCCCCO when you can.
Out: 1009.6

In: Answer with reported mass density of OCCOCCO
Out: 1109.3

* * *

- measurementConditions: 298.15 K; 101 kPa; Liquid; Pycnometric method
quantityName: mass density (kg/m3)
Give the number; kg/m3 is assumed, so skip it.

In: Supply measured mass density of OCCOCCO [diethylene glycol] in your reply.
Out: 1112.7

In: Identify measured mass density corresponding to OCCCCO [1,4-butanediol]
Out: 1012.6

In: Note down mass density recorded for CCC(C)O (centres undefined) [butan-2-ol]
Out: 802.4

In: Fill in reported mass density for this entry: CCCCO [butan-1-ol]
Out: 805.6
